System: SF-539
PROTOCOL SUMMARY: NCI tumour cell line growth inhibition, 48 h
Activity calls are given as the source filed them. Cut-off read from the data, not from the text of the source: active = GI50 up to about 1.1 µM and inactive = higher.
// classify into class 1 = active, class 0 = inactive

# COMPOUND, DISCRETE LABEL
rows = [
    ("Cc1cc(S(=O)(=O)Nc2nc(-c3ccccn3)n[nH]2)c(S)cc1Cl", "class 0"),
    ("O=C1CSC(Cc2nc3ccccc3[nH]2)=N1", "class 0"),
    ("CC1CC2=C(C1)C(C1(C)C(=O)CC3C(C1=O)C3(C)C)C(C)C2=O (stereo unspecified)", "class 0"),
    ("C[P+]1(c2ccccc2)CCCCC1", "class 0"),
    ("COc1ccc2nc3cccc([N+](=O)[O-])c3c(NCCO)c2c1", "class 1"),
    ("Nn1c(Sc2nc3ccccc3c(=O)n2N)nc2ccccc2c1=O", "class 0"),
    ("N=C(N)N/N=C(/CCN1CCCC1)CC(c1ccccc1)c1c(O)c2ccccc2oc1=O (stereo unspecified)", "class 0"),
    ("CCCC(=O)N1CCN(c2ccc3c(c2)OC(C)O3)CC1 (stereo unspecified)", "class 0"),
]

Q) Each compound tested received a call. Report the one for c1ccc2c(c1)N=C(c1ccc3ccccc3c1)CC(c1cccc3ccccc13)S2 (stereo unspecified) .
A) class 0

Q) Continue with CC1(C(=O)O)CCOc2ccccc21 (stereo unspecified)
A) class 0

Q) Continue with Cc1ccc([N+](=O)[O-])cc1NC(=O)C(=O)Cc1cc(=O)oc2cc(O)ccc12
A) class 0
